- study target: 19 kD truncated collagenase-1 (MMP-1) (Homo sapiens)
- Construct: 19 kD truncated collagenase-1 (MMP-1)
- Sequence (P03956 101-269 limits assumed): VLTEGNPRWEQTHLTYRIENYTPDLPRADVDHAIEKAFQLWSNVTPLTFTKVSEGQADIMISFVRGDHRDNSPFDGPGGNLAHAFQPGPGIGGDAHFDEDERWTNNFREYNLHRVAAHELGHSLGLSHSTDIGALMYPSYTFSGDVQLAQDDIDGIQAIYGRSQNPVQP
- experiment summary: Matrix Metalloprotease Inhibition, Collagenase-1
- run conditions: 500 pM enzyme, 10 μM fluorogenic substrate, pH=7.6; approximate IC50 equivalent to Ki ([S]<<Km)
measurement label: Ki

>>> test_result("C[C@@H]([C@@H](CCCc1ccc(Cl)cc1)C(=O)N[C@H](C(=O)NCCCN1CCOCC1)C(C)(C)C)N(O)C=O")
"50 to 500 nM"
>>> test_result("CNC(=O)[C@@H](NC(=O)[C@H](CCCc1ccccc1)[C@H](C)N(O)C=O)C(C)(C)C")
"50 to 500 nM"
>>> test_result("CC(C)[C@@H]([C@@H](CCCc1ccc(Cl)cc1)C(=O)N[C@H](C(=O)NCc1cccnc1)C(C)(C)C)N(O)C=O")
"50 to 500 nM"
>>> test_result("CNC(=O)[C@@H](NC(=O)[C@H](CCCc1ccc(Cl)cc1)[C@H](C)N(O)C=O)C(C)(C)C")
"5 to 50 nM"
>>> test_result("C[C@@H]([C@@H](CCCc1ccc(Cl)cc1)C(=O)N[C@H](C(=O)NCc1ccccn1)C(C)(C)C)N(O)C=O")
"50 to 500 nM"
>>> test_result("CNC(=O)[C@@H](NC(=O)[C@H](CCCc1cccs1)[C@H](C)N(O)C=O)C(C)(C)C")
"5 to 50 nM"
>>> test_result("CNC(=O)[C@@H](NC(=O)[C@H](CCCCCc1ccccc1)[C@H](C)N(O)C=O)C(C)(C)C")
"50 to 500 nM"
>>> test_result("CNC(=O)[C@@H](NC(=O)[C@H](CCCc1ccc(C)cc1)[C@H](C)N(O)C=O)C(C)(C)C")
"50 to 500 nM"

Reference source: patent US6172064A
